Origin of measurements: patent US11377442B2

System: HEK293 pGL4
Experiment: Firefly_pGL signal, cmpd/DMSO (pGL4 control cells)
Type: cell-based
Conditions: Homo sapiens, HEK293, pGL4; 1% FBS; 40 uM; read-out: Firefly, pGL4, 1% FBS, cmpd/DMSO (mean)
Entries and their measured fold induction at 40 µM follow.
QUANTITY NAME: fold induction at 40 µM

* O=S1(=O)C[C@H](NC2CCCCCC2)[C@@H](S(=O)(=O)c2ccc(Cl)cc2)C1 [Compound D130] | 0.9
* CC(C)CN[C@H]1CS(=O)(=O)C[C@@H]1S(=O)(=O)c1ccc(Cl)cc1 [Compound D120] | 0.9
* O=S1(=O)C[C@H](NC2CCCCC2)[C@@H](S(=O)(=O)c2ccc(Cl)cc2)C1 [Compound D124] | 0.8
* O=S1(=O)C[C@H](NCC2CCCO2)[C@@H](S(=O)(=O)c2cccs2)C1 (some centres unmarked) [Compound D134] | 1.4
* O=S1(=O)C[C@H](N2CCCCC2)[C@@H](S(=O)(=O)c2ccc(Cl)cc2)C1 [Compound D123] | 0.8
* O=S1(=O)C[C@H](N2CCCC2)[C@@H](S(=O)(=O)c2ccc(Cl)cc2)C1 [Compound D122] | 0.7
* O=S1(=O)C[C@H](N2CCCCC2)[C@@H](S(=O)(=O)c2cccs2)C1 [Compound D105] | 1.1
* COCCCN[C@H]1CS(=O)(=O)C[C@@H]1S(=O)(=O)c1ccc(Cl)cc1 [Compound D126] | 1.6
